Attribute: IC50
# Tested System: AHR (Mus musculus, UniProt P30561)
# Sequence (P30561 1-848 P471L/N533S/M589L): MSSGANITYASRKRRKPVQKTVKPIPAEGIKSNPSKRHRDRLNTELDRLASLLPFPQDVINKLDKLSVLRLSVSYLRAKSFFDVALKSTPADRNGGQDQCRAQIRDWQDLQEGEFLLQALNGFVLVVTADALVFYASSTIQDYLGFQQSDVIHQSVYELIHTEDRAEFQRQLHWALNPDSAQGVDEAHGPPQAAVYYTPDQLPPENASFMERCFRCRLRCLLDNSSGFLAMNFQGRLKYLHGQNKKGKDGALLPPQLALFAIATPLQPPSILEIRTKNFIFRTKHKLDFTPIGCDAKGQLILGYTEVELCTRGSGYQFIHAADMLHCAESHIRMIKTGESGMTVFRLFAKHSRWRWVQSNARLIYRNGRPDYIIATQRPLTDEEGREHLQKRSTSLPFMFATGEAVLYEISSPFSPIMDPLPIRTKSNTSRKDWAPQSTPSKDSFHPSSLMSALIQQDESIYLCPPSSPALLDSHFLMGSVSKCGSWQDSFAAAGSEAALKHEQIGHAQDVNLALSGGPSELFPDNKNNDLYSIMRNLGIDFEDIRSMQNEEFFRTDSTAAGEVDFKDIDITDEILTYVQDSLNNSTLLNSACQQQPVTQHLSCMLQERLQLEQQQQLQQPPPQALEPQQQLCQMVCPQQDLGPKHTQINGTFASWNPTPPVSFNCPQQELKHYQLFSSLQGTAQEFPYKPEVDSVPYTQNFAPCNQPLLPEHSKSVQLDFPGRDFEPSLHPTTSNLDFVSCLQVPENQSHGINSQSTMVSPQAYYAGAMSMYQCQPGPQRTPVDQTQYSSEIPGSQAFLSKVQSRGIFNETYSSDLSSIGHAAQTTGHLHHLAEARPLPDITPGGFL
# Protocol Notes: In vitro assay 3: antagonism in mouse cell line (AHR transactivation, firefly luciferase reporter, kynurenic acid prestimulated)
# Type: cell-based
# Particulars: Hepa 1c1c7 cells, 200 μM kynurenic acid, 20 hours, firefly luciferase reporter, read-out: AHR Antagonism Mouse IC50

{"Compound": "COc1ccc(-c2nc3c4cccc(C(C)(C)O)c4nc(N[C@@H]4CCCCNC4=O)n3n2)cc1 [Example 859]", "IC50": "39.4 nM"}
{"Compound": "C[C@@H](Nc1nc2c(Br)cccc2c2nc(-c3cnn(C)c3)nn12)C(=O)N1C[C@@H]2C[C@H]1CO2 [Example 915]", "IC50": "18.7 nM"}
{"Compound": "Cn1nccc1-c1nc2c3cccc(C(F)(F)F)c3nc(N[C@@H]3CNCCNC3=O)n2n1 [Example 946]", "IC50": "2.16 nM"}
{"Compound": "CC(C)n1cc(-c2nc3c4cccc(Br)c4nc(N[C@@H]4CCCCNC4=O)n3n2)cn1 [Example 822]", "IC50": "1.68 nM"}
{"Compound": "Cn1cc(-c2nc3c4cccc(S(C)(=O)=O)c4nc(N[C@@H]4CNCCNC4=O)n3n2)cn1 [Example 937]", "IC50": "> 20000 nM"}
{"Compound": "CCCNC(=O)[C@@H](C)Nc1nc2c(Br)cccc2c2nc(-c3cnn(C)c3)nn12 [Example 796]", "IC50": "20.2 nM"}
{"Compound": "Cc1nn(C)cc1-c1nc2c3cccc(Cl)c3nc(N[C@@H]3CCCCNC3=O)n2n1 [Example 821]", "IC50": "0.739 nM"}
{"Compound": "CCn1cc(-c2nc3c4cccc(Cl)c4nc(N[C@@H]4CNCCNC4=O)n3n2)cn1 [Example 957]", "IC50": "16.8 nM"}
{"Compound": "Cc1nn(C)cc1-c1nc2c3cccc(C(F)(F)F)c3nc(N[C@@H]3CNCCNC3=O)n2n1 [Example 975]", "IC50": "4.24 nM"}
{"Compound": "Cc1c(-c2nc3c4cccc(F)c4nc(N[C@@H]4CNCCNC4=O)n3n2)cnn1C [Example 969]", "IC50": "298 nM"}
{"Compound": "CC(C)n1cc(-c2nc3c4cccc(F)c4nc(N[C@@H]4CNCCNC4=O)n3n2)cn1 [Example 971]", "IC50": "286 nM"}
{"Compound": "CC(C)n1cc(-c2nc3c4cccc(Cl)c4nc(N[C@@H]4CCCCNC4=O)n3n2)cn1 [Example 817]", "IC50": "1.94 nM"}
{"Compound": "O=C1NCCCC[C@H]1Nc1nc2c(Br)cccc2c2nc(-c3cnn(C(F)F)c3)nn12 [Example 827]", "IC50": "0.409 nM"}
{"Compound": "Cn1cc(-c2nc3c4cccc(C#N)c4nc(N[C@@H]4CNCCNC4=O)n3n2)cn1 [Example 930]", "IC50": "14100 nM"}
{"Compound": "C[C@@H](Nc1nc2c(Br)cccc2c2nc(-c3cnn(C)c3)nn12)C(=O)N1C[C@H]2C[C@@H]1CN2C [Example 902]", "IC50": "95 nM"}
{"Compound": "Cc1c(-c2nc3c4cccc(F)c4nc(N[C@@H]4CCCCNC4=O)n3n2)cnn1C [Example 835]", "IC50": "18.5 nM"}
